system: MOLT-4; test: NCI tumour cell line growth inhibition, 48 h
Active and inactive are the calls of the source. Rule as the data show it: active = GI50 up to about 1.1 µM and inactive = higher.
Possible outcomes: YES for active, NO for inactive

{"COMPOUND": "C[n+]1cc2cc(O)c(O)cc2c2ccc3cc(O)c(O)cc3c21.c1ccncc1", "DISCRETE LABEL": "YES"}
{"COMPOUND": "CCn1c(=O)c2c3ccc(OC)cc3[nH]c2c2ccc(OC)cc21", "DISCRETE LABEL": "NO"}
{"COMPOUND": "NNC(=S)N/N=C(\\CC1OC(=O)c2ccccc21)c1ccccc1O (stereo not given)", "DISCRETE LABEL": "NO"}
{"COMPOUND": "COC1C=CC(C(=O)[N+]2=Cc3[nH]c4ccccc4c3CC2)O1 (stereo not given)", "DISCRETE LABEL": "NO"}
{"COMPOUND": "CC(=O)OC1CC2CC(=O)CC1N2C (stereo not given)", "DISCRETE LABEL": "NO"}
{"COMPOUND": "NNC(=S)N/N=C/C(Cl)=C(\\Cl)C(=O)O", "DISCRETE LABEL": "NO"}
{"COMPOUND": "COC(=O)C1(NC(=O)C(N)CC(=O)O)C(C)C1C (stereo not given)", "DISCRETE LABEL": "NO"}
{"COMPOUND": "CCCCCCCCCCCCCCCCc1c(O)nc(NN)nc1C(=O)OC", "DISCRETE LABEL": "NO"}
{"COMPOUND": "CC(=O)OCC(=O)[C@@]12OC(C)(C)O[C@@H]1C[C@H]1[C@@H]3CC(C=O)=C4C=C(OCCCl)CC[C@]4(C)[C@@]3(F)[C@@H](O)C[C@@]12C [FORMOCORTAL]", "DISCRETE LABEL": "NO"}
{"COMPOUND": "COC(=O)C1CCC(=S)N1C(C)=O (stereo not given)", "DISCRETE LABEL": "NO"}
